The measurements presented in this section are drawn from patent US8883745B2.

# Tested on: IFN-γ
# test.details: IFN-γ levels in sera upon i.v. glycolipid administration to BALB/c mice (ELISA)
# Assay type: in vivo
# Parameters: unit not given here
# measurement.setup: BALB/c, serum, hour 24
Kindly supply the reported IFN-γ levels, test 2 values for the records listed here.
The reply should be a number, written without any unit.

# IFN-γ levels, test 2 measured on IFN-γ for item CCCCCCCCCCCCCC[C@@H](O)[C@@H](O)[C@H](CC[C@H]1O[C@H](CO)[C@H](O)[C@H](O)[C@H]1O)NC(=O)CCCCCCCCCCCCCCCCCCCOCCCCC [A-5] = 9471

# IFN-γ levels, test 2 measured on IFN-γ for item CCCCCCCCCCCCCCCCCCCCCCCCCCCCC(=O)N[C@@H](/C=C/[C@H]1O[C@H](CO)[C@H](O)[C@H](O)[C@H]1O)[C@H](O)[C@H](O)CCCCCCCCCCCCCC [A-2] = 14500

# IFN-γ levels, test 2 measured on IFN-γ for item CCCCCCCCCCCCCCCCC/C=C/CCCCCCCCC(=O)N[C@@H](CC[C@H]1O[C@H](CO)[C@H](O)[C@H](O)[C@H]1O)[C@H](O)[C@H](O)CCCCCCCCCCCCCC [A-3] = 17300

# IFN-γ levels, test 2 measured on IFN-γ for item CCCCCCCCCCCCCCCCCCCCCCCCCC(=O)N[C@@H](CC[C@H]1O[C@H](CO)[C@H](O)[C@H](O)[C@H]1O)[C@H](O)[C@H](O)CCCCCCCCCCCCCC [CRONY, reference compound] = 9460

# IFN-γ levels, test 2 measured on IFN-γ for item CCCCCCCCCCCCCC[C@@H](O)[C@@H](O)[C@H](CC[C@H]1O[C@H](CO)[C@H](O)[C@H](O)[C@H]1O)NC(=O)CCCCCCCCCCCCCCCCCCCOCCCCCC [A-4] = 14200

# IFN-γ levels, test 2 measured on IFN-γ for item CCCCCCCCCCCCCCCCCC/C=C/CCCCCCCCC(=O)N[C@@H](/C=C/[C@H]1O[C@H](CO)[C@H](O)[C@H](O)[C@H]1O)[C@H](O)[C@H](O)CCCCCCCCCCCCCC [A-1] = 14400

# IFN-γ levels, test 2 measured on IFN-γ for item CCCCCCCCCCCCCCCCCCCCCCCCCC(=O)N[C@@H](CO[C@H]1O[C@H](CO)[C@H](O)[C@H](O)[C@H]1O)[C@H](O)[C@H](O)CCCCCCCCCCCCCC [KRN, reference compound] = 6983

###

Kindly supply the reported IL-12 levels, test 2 values for the records listed here.
# Test system: IL-12
# test.details: IL-12 levels in sera upon i.v. glycolipid administration to C57BL/6 mice (ELISA)
# Format: in vivo
# Design: unit not given here
# measurement.setup: C57BL/6, serum, hour 48
The reply should be a number, written without any unit.

Reported IL-12 levels, test 2 of CCCCCCCCCCCCCCCCCC/C=C/CCCCCCCCC(=O)N[C@@H](/C=C/[C@H]1O[C@H](CO)[C@H](O)[C@H](O)[C@H]1O)[C@H](O)[C@H](O)CCCCCCCCCCCCCC : 0

Reported IL-12 levels, test 2 of CCCCCCCCCCCCCCCCC/C=C/CCCCCCCCC(=O)N[C@@H](CC[C@H]1O[C@H](CO)[C@H](O)[C@H](O)[C@H]1O)[C@H](O)[C@H](O)CCCCCCCCCCCCCC : 131

Reported IL-12 levels, test 2 of CCCCCCCCCCCCCCCCCCCCCCCCCC(=O)N[C@@H](CO[C@H]1O[C@H](CO)[C@H](O)[C@H](O)[C@H]1O)[C@H](O)[C@H](O)CCCCCCCCCCCCCC [KRN, reference compound] : 123

Reported IL-12 levels, test 2 of CCCCCCCCCCCCCC[C@@H](O)[C@@H](O)[C@H](CC[C@H]1O[C@H](CO)[C@H](O)[C@H](O)[C@H]1O)NC(=O)CCCCCCCCCCCCCCCCCCCOCCCCCC : 0

Reported IL-12 levels, test 2 of CCCCCCCCCCCCCCCCCCCCCCCCCCCCC(=O)N[C@@H](/C=C/[C@H]1O[C@H](CO)[C@H](O)[C@H](O)[C@H]1O)[C@H](O)[C@H](O)CCCCCCCCCCCCCC : 0

Reported IL-12 levels, test 2 of CCCCCCCCCCCCCCCCCCCCCCCCCC(=O)N[C@@H](CC[C@H]1O[C@H](CO)[C@H](O)[C@H](O)[C@H]1O)[C@H](O)[C@H](O)CCCCCCCCCCCCCC [CRONY, reference compound] : 0

Reported IL-12 levels, test 2 of CCCCCCCCCCCCCC[C@@H](O)[C@@H](O)[C@H](CC[C@H]1O[C@H](CO)[C@H](O)[C@H](O)[C@H]1O)NC(=O)CCCCCCCCCCCCCCCCCCCOCCCCC : 64

###

Kindly supply the reported IL-4 level, test 2 values for the records listed here.
# System: IL-4
# test.details: IL-4 levels in sera upon i.v. glycolipid administration to BALB/c mice (ELISA)
# Type: in vivo
# Parameters: unit not given here
# measurement.setup: hour 6
The reply should be a number, written without any unit.

Reported IL-4 level, test 2 of CCCCCCCCCCCCCCCCC/C=C/CCCCCCCCC(=O)N[C@@H](CC[C@H]1O[C@H](CO)[C@H](O)[C@H](O)[C@H]1O)[C@H](O)[C@H](O)CCCCCCCCCCCCCC [A-3] : 53

Reported IL-4 level, test 2 of CCCCCCCCCCCCCCCCCC/C=C/CCCCCCCCC(=O)N[C@@H](/C=C/[C@H]1O[C@H](CO)[C@H](O)[C@H](O)[C@H]1O)[C@H](O)[C@H](O)CCCCCCCCCCCCCC [A-1] : 106

Reported IL-4 level, test 2 of CCCCCCCCCCCCCC[C@@H](O)[C@@H](O)[C@H](CC[C@H]1O[C@H](CO)[C@H](O)[C@H](O)[C@H]1O)NC(=O)CCCCCCCCCCCCCCCCCCCOCCCCC [A-5] : 75

Reported IL-4 level, test 2 of CCCCCCCCCCCCCC[C@@H](O)[C@@H](O)[C@H](CC[C@H]1O[C@H](CO)[C@H](O)[C@H](O)[C@H]1O)NC(=O)CCCCCCCCCCCCCCCCCCCOCCCCCC [A-4] : 74

Reported IL-4 level, test 2 of CCCCCCCCCCCCCCCCCCCCCCCCCC(=O)N[C@@H](CC[C@H]1O[C@H](CO)[C@H](O)[C@H](O)[C@H]1O)[C@H](O)[C@H](O)CCCCCCCCCCCCCC [CRONY, reference compound] : 94

Reported IL-4 level, test 2 of CCCCCCCCCCCCCCCCCCCCCCCCCC(=O)N[C@@H](CO[C@H]1O[C@H](CO)[C@H](O)[C@H](O)[C@H]1O)[C@H](O)[C@H](O)CCCCCCCCCCCCCC [KRN, reference compound] : 194

Reported IL-4 level, test 2 of CCCCCCCCCCCCCCCCCCCCCCCCCCCCC(=O)N[C@@H](/C=C/[C@H]1O[C@H](CO)[C@H](O)[C@H](O)[C@H]1O)[C@H](O)[C@H](O)CCCCCCCCCCCCCC [A-2] : 164

###

# System: IFN-γ
# test.details: IFN-γ levels in sera upon i.v. glycolipid administration to BALB/c mice (ELISA)
# Format: in vivo
# Design: unit not given here
# measurement.setup: BALB/c, serum, hour 6
reported.property: IFN-γ levels, average
The reply should be a number, written without any unit.

Reported IFN-γ levels, average of CCCCCCCCCCCCCCCCCCCCCCCCCC(=O)N[C@@H](CC[C@H]1O[C@H](CO)[C@H](O)[C@H](O)[C@H]1O)[C@H](O)[C@H](O)CCCCCCCCCCCCCC [CRONY, reference compound] : 3075.5

Reported IFN-γ levels, average of CCCCCCCCCCCCCCCCCCCCCCCCCC(=O)N[C@@H](CO[C@H]1O[C@H](CO)[C@H](O)[C@H](O)[C@H]1O)[C@H](O)[C@H](O)CCCCCCCCCCCCCC [KRN, reference compound] : 4752.5

Reported IFN-γ levels, average of CCCCCCCCCCCCCC[C@@H](O)[C@@H](O)[C@H](CC[C@H]1O[C@H](CO)[C@H](O)[C@H](O)[C@H]1O)NC(=O)CCCCCCCCCCCCCCCCCCCOCCCCC : 1665

Reported IFN-γ levels, average of CCCCCCCCCCCCCCCCCCCCCCCCCCCCC(=O)N[C@@H](/C=C/[C@H]1O[C@H](CO)[C@H](O)[C@H](O)[C@H]1O)[C@H](O)[C@H](O)CCCCCCCCCCCCCC : 4185.5
